Tested on: IGROV-1 cells
Assay: Cytotoxic activity, MTT assay, IGROV-1
Details: at 100 µM
readout: Cytotoxic activity against IGROV-1 (in words)

{"molecule": "O=c1cc(-c2ccccc2)oc2cc(O)ccc12 [Molecule M5, 7-hydroxyflavone]", "experimental.value": "most active"}
{"molecule": "O=c1cc(-c2cc(O)cc(O)c2)oc2ccccc12 [Molecule M8, 3′,5′-dihydroxyflavone]", "experimental.value": "most active"}
{"molecule": "COc1ccc(-c2oc3c(CC=C(C)C)c(O[C@@H]4O[C@H](CO)[C@@H](O)[C@H](O)[C@H]4O)cc(O)c3c(=O)c2O[C@@H]2O[C@@H](C)[C@H](O)[C@@H](O)[C@H]2O)cc1", "experimental.value": "not active"}
{"molecule": "O=c1cc(-c2cccc(O)c2)oc2cc(O)ccc12 [Molecule M13, 7,3′-dihydroxyflavone]", "experimental.value": "most active"}
{"molecule": "COc1cc(-c2cc(=O)c3ccc4c(O)cccc4c3o2)cc(OC)c1OC", "experimental.value": "not active"}
{"molecule": "O=c1cc(-c2ccccc2)oc2ccc(O)cc12 [Molecule M3, 6-hydroxyflavone]", "experimental.value": "most active"}
{"molecule": "O=c1cc(-c2cccc(O)c2)oc2ccc3ccccc3c12 [Molecule M9, 3′-hydroxy-b-naphthoflavone]", "experimental.value": "not active"}
{"molecule": "O=c1cc(-c2ccccc2)oc2cc(O)cc(O)c12 [Molecule M1, 5,7-dihydroxyflavone]", "experimental.value": "most active"}

---

// reported pIC50 per item
Molecular target: UniProt:P22303
Assay: biochemical
pIC50: −log10 of the molar value.
readout: pIC50

{"compound": "CC1OC(Oc2c(-c3cc(O)c(O)c(O)c3)oc3cc(O)cc(O)c3c2=O)C(O)C(O)C1O (stereo not drawn) [Molecule M20, myricitrin dihydrate]", "readout": "pIC50", "experimental.value": "< 4.30"}
{"compound": "COc1ccc(-c2oc3c(CC=C(C)C)c(O[C@@H]4O[C@H](CO)[C@@H](O)[C@H](O)[C@H]4O)cc(O)c3c(=O)c2O[C@@H]2O[C@@H](C)[C@H](O)[C@@H](O)[C@H]2O)cc1", "readout": "pIC50", "experimental.value": "< 4.00"}
{"compound": "O=c1cc(-c2ccccc2)oc2cc(O)cc(O)c12 [Molecule M1, 5,7-dihydroxyflavone]", "readout": "pIC50", "experimental.value": "< 4.00"}

---

Biological target: UniProt:P04746
Sequence (P04746 16-511): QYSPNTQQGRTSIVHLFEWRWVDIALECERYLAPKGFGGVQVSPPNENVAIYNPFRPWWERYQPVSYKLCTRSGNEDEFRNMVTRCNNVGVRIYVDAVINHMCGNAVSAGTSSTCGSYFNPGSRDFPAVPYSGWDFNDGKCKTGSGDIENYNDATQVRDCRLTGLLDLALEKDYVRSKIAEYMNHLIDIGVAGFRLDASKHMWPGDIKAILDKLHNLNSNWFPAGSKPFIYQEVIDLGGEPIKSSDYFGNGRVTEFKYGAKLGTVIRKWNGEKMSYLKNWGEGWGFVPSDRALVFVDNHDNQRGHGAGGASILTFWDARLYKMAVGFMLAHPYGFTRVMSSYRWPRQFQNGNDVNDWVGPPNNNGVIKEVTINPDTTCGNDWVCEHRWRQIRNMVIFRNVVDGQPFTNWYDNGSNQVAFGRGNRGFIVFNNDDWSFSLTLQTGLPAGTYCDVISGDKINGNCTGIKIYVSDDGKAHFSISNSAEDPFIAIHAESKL
Assay: Anti-α-amylase activity (starch/DNS)
Settings: at 100 µM
Catalogue of Anti α-Amylase % readings, one per entry.

{"compound": "COc1cccc(-c2cc(=O)c3c(O)cccc3o2)c1 [Molecule M11, 5-hydroxy-3′-methoxyflavone]", "units.of.measure": "%", "Anti α-Amylase %": 124.8}
{"compound": "O=c1cc(-c2cccc(O)c2)oc2cccc(O)c12 [Molecule M14, 5,3′-dihydroxyflavone]", "units.of.measure": "%", "Anti α-Amylase %": 109.6}
{"compound": "O=c1cc(-c2ccccc2)oc2ccc(O)cc12 [Molecule M3, 6-hydroxyflavone]", "units.of.measure": "%", "Anti α-Amylase %": 90.3}
{"compound": "COc1ccc(-c2cc(=O)c3c(O)cc(O[C@@H]4O[C@H](CO[C@@H]5O[C@@H](C)[C@H](O)[C@@H](O)[C@H]5O)[C@@H](O)[C@H](O)[C@H]4O)cc3o2)cc1O", "units.of.measure": "%", "Anti α-Amylase %": 60.6}
{"compound": "O=c1cc(-c2cccc(O)c2)oc2cc(O)ccc12 [Molecule M13, 7,3′-dihydroxyflavone]", "units.of.measure": "%", "Anti α-Amylase %": 91.7}

---

Target: superoxide dismutase (SOD) (Homo sapiens)
Sequence (P00441 whole entry): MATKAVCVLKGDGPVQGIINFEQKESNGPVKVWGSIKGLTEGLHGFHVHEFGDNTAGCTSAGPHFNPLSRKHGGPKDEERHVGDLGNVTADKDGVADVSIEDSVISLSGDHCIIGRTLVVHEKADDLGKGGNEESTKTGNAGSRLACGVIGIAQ
Assay: biochemical
Settings: read-out: Anti SOD IC50
pIC50: −log10 of the molar value.

{"compound": "O=c1cc(-c2ccccc2)oc2cc(O)ccc12 [Molecule M5, 7-hydroxyflavone]", "pIC50": 4.44}
{"compound": "Cc1cccc(COc2cc(O)c3c(=O)cc(-c4ccccc4)oc3c2)c1", "pIC50": "< 4.00"}
{"compound": "COc1cc(O)c2c(=O)cc(-c3ccc(O)cc3)oc2c1 [Molecule M12, 4′,5-dihydroxy-7-methoxyflavone]", "pIC50": "< 4.00"}
{"compound": "CC1OC(OCC2OC(Oc3c(-c4ccc(OCCO)c(OCCO)c4)oc4cc(OCCO)cc(O)c4c3=O)C(O)C(O)C2O)C(O)C(O)C1O (stereo not shown) [Molecule M6, trihydroxyethylrutin]", "pIC50": "< 4.30"}

---

Test system: SKOV-3 cells
Assay: Cytotoxic activity, MTT assay, SKOV-3
Format: cell-based, human
Details: Homo sapiens, SK-OV-3, 72 h, read-out: IC50 SKOV-3, MTT, 72 h

{"compound": "COc1cccc(-c2cc(=O)c3c(O)cccc3o2)c1 [Molecule M11, 5-hydroxy-3′-methoxyflavone]", "system.under.test": "SKOV-3 cells", "IC50": "> 100 µM"}
{"compound": "COc1ccc(-c2cc(=O)c3c(O)cc(O[C@@H]4O[C@H](CO[C@@H]5O[C@@H](C)[C@H](O)[C@@H](O)[C@H]5O)[C@@H](O)[C@H](O)[C@H]4O)cc3o2)cc1O", "system.under.test": "SKOV-3 cells", "IC50": "40.1 µM"}
{"compound": "O=c1cc(-c2cccc(O)c2)oc2c1ccc1ccccc12 [Molecule M10, 3′-hydroxy-a-naphthoflavone]", "system.under.test": "SKOV-3 cells", "IC50": "> 50 µM"}

---

Tested on: SKOV-3 cells
Experiment: Cytotoxic activity, MTT assay, SKOV-3
Assay type: cell-based, human
Details: Homo sapiens, SK-OV-3, 72 h, read-out: IC50 SKOV-3, MTT, 72 h
pIC50: −log10 of the molar value.
readout: pIC50

{"compound": "CC1OC(OCC2OC(Oc3c(-c4ccc(OCCO)c(OCCO)c4)oc4cc(OCCO)cc(O)c4c3=O)C(O)C(O)C2O)C(O)C(O)C1O (stereo not drawn) [Molecule M6, trihydroxyethylrutin]", "readout": "pIC50", "experimental.value": "< 4.30"}
{"compound": "Cc1cccc(COc2cc(O)c3c(=O)cc(-c4ccccc4)oc3c2)c1 [Molecule M15]", "readout": "pIC50", "experimental.value": "< 4.30"}
{"compound": "O=c1cc(-c2ccccc2)oc2cc(O)ccc12 [Molecule M5, 7-hydroxyflavone]", "readout": "pIC50", "experimental.value": "< 4.30"}
{"compound": "COc1cc(-c2cc(=O)c3ccc4c(O)cccc4c3o2)cc(OC)c1OC [Molecule M18]", "readout": "pIC50", "experimental.value": 4.43}
{"compound": "COc1ccc(-c2oc3c(CC=C(C)C)c(O[C@@H]4O[C@H](CO)[C@@H](O)[C@H](O)[C@H]4O)cc(O)c3c(=O)c2O[C@@H]2O[C@@H](C)[C@H](O)[C@@H](O)[C@H]2O)cc1 [Molecule M2, Icariin]", "readout": "pIC50", "experimental.value": "< 4.30"}
{"compound": "O=c1cc(-c2cccc(O)c2)oc2cccc(O)c12 [Molecule M14, 5,3′-dihydroxyflavone]", "readout": "pIC50", "experimental.value": "< 4.00"}
{"compound": "O=c1cc(-c2ccccc2)oc2cc(O)c(O)c(O)c12 [Molecule M7, 5,6,7-trihydroxyflavone]", "readout": "pIC50", "experimental.value": 4.81}
{"compound": "Cc1ccc2oc(-c3cccc(O)c3)cc(=O)c2c1 [Molecule M16, 3′-hydroxy-6-methylflavone]", "readout": "pIC50", "experimental.value": 4.38}
{"compound": "O=c1cc(-c2ccccc2)oc2cc(O)cc(O)c12 [Molecule M1, 5,7-dihydroxyflavone]", "readout": "pIC50", "experimental.value": "< 4.30"}

---

// values below are reported pIC50
Molecular target: acetylcholinesterase (AChE) (Homo sapiens)
Sequence (P22303 32-614, species assumed): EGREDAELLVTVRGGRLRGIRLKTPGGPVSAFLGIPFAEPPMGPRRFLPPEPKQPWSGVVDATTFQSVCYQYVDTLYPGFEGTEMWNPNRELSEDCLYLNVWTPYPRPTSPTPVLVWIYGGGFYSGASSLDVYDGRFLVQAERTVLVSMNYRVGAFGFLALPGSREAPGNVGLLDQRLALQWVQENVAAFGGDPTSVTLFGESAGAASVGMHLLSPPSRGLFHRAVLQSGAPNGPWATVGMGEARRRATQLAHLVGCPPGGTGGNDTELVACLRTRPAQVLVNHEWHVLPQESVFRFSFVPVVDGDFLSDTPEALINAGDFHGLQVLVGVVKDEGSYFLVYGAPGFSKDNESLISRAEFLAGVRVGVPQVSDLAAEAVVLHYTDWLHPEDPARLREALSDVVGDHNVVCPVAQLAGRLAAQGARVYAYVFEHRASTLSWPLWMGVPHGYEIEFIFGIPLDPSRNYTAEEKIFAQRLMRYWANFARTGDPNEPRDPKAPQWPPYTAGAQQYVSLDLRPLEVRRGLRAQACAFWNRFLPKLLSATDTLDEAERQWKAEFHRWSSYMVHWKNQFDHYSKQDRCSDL
Assay: biochemical
pIC50: −log10 of the molar value.

{"compound": "COc1ccc(-c2cc(=O)c3c(O)cc(O[C@@H]4O[C@H](CO[C@@H]5O[C@@H](C)[C@H](O)[C@@H](O)[C@H]5O)[C@@H](O)[C@H](O)[C@H]4O)cc3o2)cc1O", "pIC50": "< 4.00"}
{"compound": "O=c1cc(-c2ccccc2)oc2cc(O)ccc12 [Molecule M5, 7-hydroxyflavone]", "pIC50": "< 4.00"}
{"compound": "CC1OC(OCC2OC(Oc3c(-c4ccc(OCCO)c(OCCO)c4)oc4cc(OCCO)cc(O)c4c3=O)C(O)C(O)C2O)C(O)C(O)C1O (stereo not drawn) [Molecule M6, trihydroxyethylrutin]", "pIC50": "< 4.00"}
{"compound": "O=c1cc(-c2ccccc2)oc2cccc(O)c12 [Molecule M4, 5-hydroxyflavone]", "pIC50": "< 4.00"}
{"compound": "O=c1cc(-c2ccccc2)oc2cc(O)c(O)c(O)c12 [Molecule M7, 5,6,7-trihydroxyflavone]", "pIC50": 4.99}
{"compound": "COc1cc(O)c2c(=O)cc(-c3ccc(O)cc3)oc2c1 [Molecule M12, 4′,5-dihydroxy-7-methoxyflavone]", "pIC50": "< 4.30"}
